# System: MYC T-ALL 4188 cells
# experimentalDetails: Chemotherapeutic drug treatment of MYC T-ALL cells, surface protein levels by flow cytometry
# Assay type: cell-based, mouse
# testParameters: MYC T-ALL cells; 10 μM each

molecule | tumor cell death
C[C@]12C=CC(=O)C=C1CC[C@@H]1[C@@H]2C(=O)C[C@@]2(C)[C@H]1CC[C@]2(O)C(=O)CO | tumor cell death
N.N.[Cl][Pt][Cl] [cisplatin] | tumor cell death
CC[C@]1(O)C[C@H]2CN(CCc3c([nH]c4ccccc34)[C@@](C(=O)OC)(c3cc4c(cc3OC)N(C=O)[C@H]3[C@@](O)(C(=O)OC)[C@H](OC(C)=O)[C@]5(CC)C=CCN6CC[C@]43[C@@H]65)C2)C1 | tumor cell death
O=P1(N(CCCl)CCCl)NCCCO1 (stereo not shown) | tumor cell death
